Let's look at some compounds and their measured log10(Ki).
# target.under.test: Dimer of Gag-Pol polyprotein [501-599,Q508K,L534I,L564I,C568A,C596A] (Human immunodeficiency virus 1, UniProt P03367, C568A/C596A/L534I/L564I/Q508K)
# Construct: 501-599
# protocol.description: Protease Inhibition Assay
# condition.context: pH 6.4; 25 °C
Parameter value (number): base-10 log of Ki in µM.

1. O=C(N[C@H]1c2ccccc2C[C@H]1O)[C@H](Cc1ccccc1)C[C@H](O)CN1C(=O)N(Cc2cccnc2)C[C@@H]1Cc1ccccc1 : -1.74
2. O=C(N[C@H]1c2ccccc2C[C@H]1O)[C@H](Cc1ccccc1)C[C@H](O)CN1C(=O)N(Cc2ccncc2)C[C@@H]1Cc1ccccc1 : -0.72
3. COc1ccc(CN2C[C@H](Cc3ccccc3)N(C[C@@H](O)C[C@@H](Cc3ccccc3)C(=O)N[C@H]3c4ccccc4C[C@H]3O)C2=O)cc1 : -2.25
4. O=C(N[C@H]1c2ccccc2C[C@H]1O)[C@H](Cc1ccccc1)C[C@H](O)CN1C(=O)N(Cc2ccccn2)C[C@@H]1Cc1ccccc1 : -1.39

Reported log10(Ki) ( `O=C(N[C@H]1c2ccccc2C[C@H]1O)[C@H](Cc1ccccc1)C[C@H](O)CN1C(=O)N(Cc2cccc(F)c2)C[C@@H]1Cc1ccccc1` ) = -2.49

Reported log10(Ki) ( `COc1cc(CN2C[C@H](Cc3ccccc3)N(C[C@@H](O)C[C@@H](Cc3ccccc3)C(=O)N[C@H]3c4ccccc4C[C@H]3O)C2=O)cc(OC)c1OC` ) = -1.00

Reported log10(Ki) ( `CS(=O)(=O)c1ccc(CN2C[C@H](Cc3ccccc3)N(C[C@@H](O)C[C@@H](Cc3ccccc3)C(=O)N[C@H]3c4ccccc4C[C@H]3O)C2=O)cc1` ) = -0.52
